Target: T1, SARS-COV-2 RBD (SARS-COV-2, UniProt P0DTC2 319-539)
T1 construct: also called WT RBD
Assay: ELISA, RBD coated
attribute measured: EC50 (ng/mL)
Use ng/mL as the unit, but write only the number.

C878 (antibody, V domains shown, IgG; V domains only) VH: EVQLVESGGGLVQPGGSLRLSCSVSGFTFSNFAMHWVRQAPGKGLEFVSGVSSDGDITDYADSVKGRFTISRDNSKNTLYLQMSSLRPEDTAVYYCVKDKEHSTMVTIFDFWGQGTLVTVSS VL: DIQMTQSPSSLSASVGDRVTITCRASQSISSFLNWYQQKPGKAPKLLIYAASSLQSGVPSRFSGRGSGADFTLTITSLQPEDFATYFCQQSYSSHLTFGPGTKVDIK
2.88

Then there is this binder:
[Q] Reported EC50 for C899 (antibody, V domains shown, IgG; V domains only) VH: EVQLVESGGGLVKPGGSLRLSCAASGFTFSNAWMSWVRQAPGKGLEWVGRIKSKTDAETTDYAAPVRGRFTISRDNSKNTLYLEMNSLKTEDTAVYYCTTDADYSDSSGYYVTYYFEYWGQGSLVTVSS VL: QSALTQPRSVSGSPGQSVTISCTGSNSDVGGYNYVSWYQQHPGKAPKLVIYDVSLRPSGVPDRFSGSKSGITASLTISGLQPEDEAHYYCCSFAGTYTPWVFGGGTRLTVL : what is it?
[A] 2.23
